System: 786-O (clear cell renal cell adenocarcinoma cell)
Assay: Cell viability assay (Promega CellTiter-Glo), inhibitory effect on 786-O
Assay type: cell-based
Settings: Homo sapiens, 786-0, 72 h, 3 days of culture
Would you mind sorting the entries by IC50 according to these classes? low bracket: < 4 µM; middle bracket: ≥ 4 µM and < 8 µM; high bracket: ≥ 8 µM

{"smiles_code": "CCCCCc1c2[n+](cc3c(OC)c(OC)ccc13)CCc1cc3c(cc1-2)OCO3", "class_label": "middle bracket"}

Challenge: Lab note: sort CCCCCCCc1c2[n+](cc3c(OC)c(OC)ccc13)CCc1cc3c(cc1-2)OCO3 into the matching IC50 band.
Response given: low bracket

Challenge: Which of the defined bands does the recorded IC50 of COc1ccc2c(CCC(C)C)c3[n+](cc2c1OC)CCc1cc2c(cc1-3)OCO2 sit within?
Response given: high bracket

Challenge: Lab note: which band did CCCCc1c2[n+](cc3c(OC)c(OC)ccc13)CCc1cc3c(cc1-2)OCO3 land in?
Response given: high bracket
